Biological target: T1, monocyte chemo-attractant protein-1 (MCP-1) (Homo sapiens (Human)., UniProt P13500)
T1 construct: MCP-1 (monocyte chemo-attractant protein-1), chemokine; synthetic gene optimised for E. coli in pET26b; Probably the mature human chemokine, as in PDB 2BDN; also called monocyte chemotactic protein-1; antigen; source: E. coli Rosetta2 (DE3), purified (Ni-NTA, SEC)
Assay: SPR; Biacore T200; MCP-1 immobilised on a CM5 chip by amine coupling (~220 RU), scFv injected at 30 µl/min; PBS with 0.005% Tween-20; 25°C; global fit, 1:1 Langmuir model; KD from koff/kon
Settings: both partners purified
For each record, write down the corresponding koff.
Numbers only, in s⁻¹.

11K2 scFv mutein L-T56E (scFv, V domains shown, PDB 2BDN heavy chain; PDB 2BDN light chain) with the stated change) VH: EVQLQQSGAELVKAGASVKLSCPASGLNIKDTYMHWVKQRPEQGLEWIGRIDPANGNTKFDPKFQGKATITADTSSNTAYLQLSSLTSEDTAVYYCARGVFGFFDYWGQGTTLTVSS VL: DIQMTQSSSSFSVSLGDRVTITCKATEDIYNRLAWYQQKPGSAPRLLISGATSLEEGVPSRFSGSGSGKDYTLSITSLQTEDVATYYCQQFWSAPYTFGGGTKLEIK | 2.6e-05
11K2 scFv mutein L-N31K (scFv, V domains shown, PDB 2BDN heavy chain; PDB 2BDN light chain) with the stated change; also called L-D31K (printed once in the results)) VH: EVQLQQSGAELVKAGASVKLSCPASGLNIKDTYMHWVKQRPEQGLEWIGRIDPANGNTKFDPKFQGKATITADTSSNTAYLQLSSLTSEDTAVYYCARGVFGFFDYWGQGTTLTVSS VL: DIQMTQSSSSFSVSLGDRVTITCKATEDIYKRLAWYQQKPGSAPRLLISGATSLETGVPSRFSGSGSGKDYTLSITSLQTEDVATYYCQQFWSAPYTFGGGTKLEIK | 0.098

Give koff for all binders that follow.
1. 11K2 scFv mutein H-L27K (scFv, V domains shown, PDB 2BDN heavy chain) with the stated change; PDB 2BDN light chain)) VH: EVQLQQSGAELVKAGASVKLSCPASGKNIKDTYMHWVKQRPEQGLEWIGRIDPANGNTKFDPKFQGKATITADTSSNTAYLQLSSLTSEDTAVYYCARGVFGFFDYWGQGTTLTVSS VL: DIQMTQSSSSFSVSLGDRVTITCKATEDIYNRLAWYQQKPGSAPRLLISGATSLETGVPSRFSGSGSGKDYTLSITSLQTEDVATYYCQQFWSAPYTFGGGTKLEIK
2. 11K2 scFv mutein L-Y30K (scFv, V domains shown, PDB 2BDN heavy chain; PDB 2BDN light chain) with the stated change) VH: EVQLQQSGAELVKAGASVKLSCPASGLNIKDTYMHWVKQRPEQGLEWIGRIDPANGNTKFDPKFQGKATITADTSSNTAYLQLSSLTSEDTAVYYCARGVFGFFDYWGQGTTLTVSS VL: DIQMTQSSSSFSVSLGDRVTITCKATEDIKNRLAWYQQKPGSAPRLLISGATSLETGVPSRFSGSGSGKDYTLSITSLQTEDVATYYCQQFWSAPYTFGGGTKLEIK

[0.00039, 0.00031]

Give koff for all binders that follow.
1. 11K2 scFv mutein L-T56D (scFv, V domains shown, PDB 2BDN heavy chain; PDB 2BDN light chain) with the stated change) VH: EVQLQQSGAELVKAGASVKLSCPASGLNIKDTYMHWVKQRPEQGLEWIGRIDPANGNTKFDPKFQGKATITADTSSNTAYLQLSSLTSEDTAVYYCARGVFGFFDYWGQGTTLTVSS VL: DIQMTQSSSSFSVSLGDRVTITCKATEDIYNRLAWYQQKPGSAPRLLISGATSLEDGVPSRFSGSGSGKDYTLSITSLQTEDVATYYCQQFWSAPYTFGGGTKLEIK
2. wild-type 11K2 scFv (scFv, V domains shown, VH of antibody 11K2; also the variable domain of the heavy chain of the 11K2 Fab in PDB 2BDN; linker of the scFv; VL of antibody 11K2; also the variable domain of the light chain of the 11K2 Fab in PDB 2BDN; also called WT; scFv 11K2) VH: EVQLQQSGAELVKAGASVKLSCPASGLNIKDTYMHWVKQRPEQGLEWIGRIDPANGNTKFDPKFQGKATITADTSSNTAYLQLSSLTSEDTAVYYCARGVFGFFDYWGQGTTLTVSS VL: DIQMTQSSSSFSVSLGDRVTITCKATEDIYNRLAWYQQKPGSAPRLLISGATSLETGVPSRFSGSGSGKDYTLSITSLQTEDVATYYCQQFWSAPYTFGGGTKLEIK

1. 8.6e-05
2. 0.0001

Give koff for all binders that follow.
1. 11K2 scFv mutein H-L27R (scFv, V domains shown, PDB 2BDN heavy chain) with the stated change; PDB 2BDN light chain)) VH: EVQLQQSGAELVKAGASVKLSCPASGRNIKDTYMHWVKQRPEQGLEWIGRIDPANGNTKFDPKFQGKATITADTSSNTAYLQLSSLTSEDTAVYYCARGVFGFFDYWGQGTTLTVSS VL: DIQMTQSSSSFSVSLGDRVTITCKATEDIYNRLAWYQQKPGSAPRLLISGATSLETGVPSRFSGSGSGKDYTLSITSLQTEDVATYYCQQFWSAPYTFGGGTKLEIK
2. 11K2 scFv mutein H-D31E (scFv, V domains shown, PDB 2BDN heavy chain) with the stated change; PDB 2BDN light chain)) VH: EVQLQQSGAELVKAGASVKLSCPASGLNIKETYMHWVKQRPEQGLEWIGRIDPANGNTKFDPKFQGKATITADTSSNTAYLQLSSLTSEDTAVYYCARGVFGFFDYWGQGTTLTVSS VL: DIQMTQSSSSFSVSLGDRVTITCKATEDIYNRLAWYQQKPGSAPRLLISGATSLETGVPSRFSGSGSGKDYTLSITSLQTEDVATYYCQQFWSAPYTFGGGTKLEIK

1. 0.00033
2. 0.00015

Give koff for all binders that follow.
1. 11K2 scFv mutein L-S53D (scFv, V domains shown, PDB 2BDN heavy chain; PDB 2BDN light chain) with the stated change) VH: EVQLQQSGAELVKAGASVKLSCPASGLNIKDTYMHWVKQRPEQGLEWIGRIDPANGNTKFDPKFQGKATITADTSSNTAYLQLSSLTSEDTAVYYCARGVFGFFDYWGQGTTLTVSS VL: DIQMTQSSSSFSVSLGDRVTITCKATEDIYNRLAWYQQKPGSAPRLLISGATDLETGVPSRFSGSGSGKDYTLSITSLQTEDVATYYCQQFWSAPYTFGGGTKLEIK
2. 11K2 scFv mutein L-S53E (scFv, V domains shown, PDB 2BDN heavy chain; PDB 2BDN light chain) with the stated change) VH: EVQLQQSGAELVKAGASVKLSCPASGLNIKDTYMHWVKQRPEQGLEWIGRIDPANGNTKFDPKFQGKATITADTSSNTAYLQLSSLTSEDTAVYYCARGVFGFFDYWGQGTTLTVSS VL: DIQMTQSSSSFSVSLGDRVTITCKATEDIYNRLAWYQQKPGSAPRLLISGATELETGVPSRFSGSGSGKDYTLSITSLQTEDVATYYCQQFWSAPYTFGGGTKLEIK
3. 11K2 scFv mutein L-N31R (scFv, V domains shown, PDB 2BDN heavy chain; PDB 2BDN light chain) with the stated change; also called L-D31R (printed once in the results)) VH: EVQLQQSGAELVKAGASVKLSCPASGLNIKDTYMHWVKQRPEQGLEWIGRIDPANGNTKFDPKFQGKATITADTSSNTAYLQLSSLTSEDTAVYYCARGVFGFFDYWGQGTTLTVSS VL: DIQMTQSSSSFSVSLGDRVTITCKATEDIYRRLAWYQQKPGSAPRLLISGATSLETGVPSRFSGSGSGKDYTLSITSLQTEDVATYYCQQFWSAPYTFGGGTKLEIK
4. 11K2 scFv mutein H-N28Q (scFv, V domains shown, PDB 2BDN heavy chain) with the stated change; PDB 2BDN light chain)) VH: EVQLQQSGAELVKAGASVKLSCPASGLQIKDTYMHWVKQRPEQGLEWIGRIDPANGNTKFDPKFQGKATITADTSSNTAYLQLSSLTSEDTAVYYCARGVFGFFDYWGQGTTLTVSS VL: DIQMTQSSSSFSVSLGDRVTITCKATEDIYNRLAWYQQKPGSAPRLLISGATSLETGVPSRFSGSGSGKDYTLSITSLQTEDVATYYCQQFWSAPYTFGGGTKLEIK

["5.5e-05", "1.4e-05", "2.2e-05", 0.0019]
